Where do the numbers come from? From the nanobody polyreactivity screen of Harvey et al. (2022).

- Assay comment: yeast display, Sf9 membrane polyspecificity reagent, FACS + sequencing; frameworks hold sequencing errors

{"Sequence chain": "QVQLVESGGGLVQAGGSLRLSCAASGLIFKRNAMGWYRQAPGKERELVATISGSGGSTYYADSVKGRFTISRDNAKNTFYLQMNSLKPEDTAVYYCAAEASSVSYPYEYEYWGQGTQVTVSS", "polyreactivity (PSR sort gate)": "high polyreactivity"}
{"Sequence chain": "QVQLVESGGGLVQAGGSLRLSCAASGINFGRNAMGWYSQAPGKERELVAAITRRGGRTNYADSVKGRFTISRDNAKNTVYLQMNSLKPEDNAVYYCNAHGRPAEAGYDYWGQATQVTVSS", "polyreactivity (PSR sort gate)": "high polyreactivity"}
{"Sequence chain": "QVQLQESGGGLVQAGGSLRLSCAASGSIFYEFYMGWYRQAPGKERELVAAIANGASTHYADSVKGRFTISRDNSNNTVYLQMSSLKQEDTAVYYCAVNTTSDIDYIYWGQGTQVNVSS", "polyreactivity (PSR sort gate)": "low polyreactivity"}
{"Sequence chain": "QVQLVESGGGLVQAGGSLRLSCAASGFIFDRYAMGWYRQAPGKERELVAAIDTASSTNYADSVKGRFTISRDNAKNTVDLQMNSLKPEDTAVYYCNASGYYYVIYWKVSNYNYWGQGTQVTVSS", "polyreactivity (PSR sort gate)": "low polyreactivity"}
{"Sequence chain": "QVQLVESGGGLVQAGGSLRLSCAASGFIFGNYVMGWYRPAPGKERELVAAISESGSRTYYADSVKGRFTISRDNAKNTVYLQMNSLKPEDTAVYYCAAALFSYYGEYDYWGQGTQVTVSS", "polyreactivity (PSR sort gate)": "low polyreactivity"}
